Experiment: In vivo pharmacokinetics, single intravenous dose
Conditions: female, OF-1, mouse, plasma, iv, 40 mg/kg
measuredQuantity: half-life (min)
The reply should contain only the number, in min.

Please fill in: half-life reported for CC(O)(C(F)F)C(NC(=O)c1ccc(C#Cc2ccc(CN3CCOCC3)cc2)cc1)C(=O)NO (stereo not shown) = 10

----------
Assay: Microsomal stability analysis
Details: mouse, liver microsomes, pH 7.4
# reported microsomal CLint at 1 µM; entries follow
The reply should contain only the number, in µL/min/mg.

compound	measuredValue
CC(O)(C(F)F)C(NC(=O)c1ccc(C#CC#Cc2ccc(N)cc2)cc1)C(=O)NO (centres unmarked)	24

// moving on: another record for microsomal CLint at 1 µM
Please fill in: microsomal CLint at 1 µM reported for CC(O)(C(F)F)C(NC(=O)c1ccc(C#Cc2ccc(CN3CCOCC3)cc2)cc1)C(=O)NO (centres unmarked) = 52
